Biological target: human EP1 receptor (Homo sapiens, UniProt P34995)
Construct: expressed in transfected cells; host or cells: CHO-K1
Sequence (P34995 whole entry): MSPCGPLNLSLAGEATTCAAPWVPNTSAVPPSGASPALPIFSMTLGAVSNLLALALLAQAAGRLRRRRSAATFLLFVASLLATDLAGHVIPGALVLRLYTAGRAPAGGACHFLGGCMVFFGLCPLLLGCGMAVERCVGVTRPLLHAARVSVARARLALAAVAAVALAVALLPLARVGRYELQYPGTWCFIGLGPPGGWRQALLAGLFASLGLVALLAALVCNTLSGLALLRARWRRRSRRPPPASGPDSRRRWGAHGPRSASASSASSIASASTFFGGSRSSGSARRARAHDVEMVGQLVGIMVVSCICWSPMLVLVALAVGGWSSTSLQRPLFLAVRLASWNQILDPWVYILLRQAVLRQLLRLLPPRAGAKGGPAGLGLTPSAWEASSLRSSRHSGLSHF
Assay: human EP1 calcium mobilisation assay
Type: cell-based
Settings: human EP1, PGE2-induced calcium mobilisation in CHO-K1 cells; free bases or sodium salts; averages of a number of experiments; read-out: functional pKi value (converted)
Structures can show the parent of a compound that is named as a salt.
endpoint label: Ki

Param request: Ki | system human EP1 receptor (Homo sapiens, UniProt P34995) | item `CC(C)COc1ccc(Cl)cc1Cc1ccc(-c2nc3cc(C(F)(F)F)ccc3[nH]2)o1` < 1 µM

Param request: Ki | system human EP1 receptor (Homo sapiens, UniProt P34995) | item `O=C(Nc1c(F)cccc1F)c1ccc(Cc2cc(Cl)ccc2OCc2ccccc2F)o1` < 1 µM

Param request: Ki | system human EP1 receptor (Homo sapiens, UniProt P34995) | item `CC(C)COc1ccc(Cl)cc1Cc1ccc(C(=O)O)o1` < 1 µM

Param request: Ki | system human EP1 receptor (Homo sapiens, UniProt P34995) | item `CC(C)COc1ccc(Cl)cc1Cc1ccc(-c2nc3ccc(CN4CCN(C)CC4)cc3[nH]2)o1` < 1 µM

Param request: Ki | system human EP1 receptor (Homo sapiens, UniProt P34995) | item `Clc1ccc(OCc2ccccc2)c(Cc2ccc(-c3nc4cscc4[nH]3)o2)c1` < 1 µM

Param request: Ki | system human EP1 receptor (Homo sapiens, UniProt P34995) | item `CC(C)COc1ccc(Cl)cc1Cc1ccc(-c2nc3ccc(CN(C)CC(C)(C)C)cc3[nH]2)o1` < 1 µM

Param request: Ki | system human EP1 receptor (Homo sapiens, UniProt P34995) | item CC(C)COc1ccc(Cl)cc1Cc1ccc(-c2nc3nc(Br)cnc3[nH]2)o1 [Example 136, hydrochloride] > 1 µM

Param request: Ki | system human EP1 receptor (Homo sapiens, UniProt P34995) | item `CC(C)COc1ccc(Cl)cc1Cc1ccc(-c2ncc[nH]2)o1` ≤ 0.01 µM

* * *

Biological target: human EP1 receptor (Homo sapiens)
Construct: expressed in transfected cells; host or cells: CHO-K1
Experiment: human EP1 calcium mobilisation assay
Type: cell-based
Conditions: human EP1, PGE2-induced calcium mobilisation in CHO-K1 cells; free bases or sodium salts; averages of a number of experiments; read-out: functional pKi value (converted)
Description: Briefly, the antagonist properties of compounds are assessed by their ability to inhibit the mobilisation of intracellular calcium ([Ca^2+]i) in response to activation of EP1 or EP3 receptors by the natural agonist hormone prostaglandin E2 (PGE2). […] The amount of calcium produced is assessed using a calcium-sensitive fluorescent dye such as Fluo-4, AM and a suitable instrument such as a Fluorimetric Imaging Plate Reader (FLIPR). […]
endpoint label: Ki

Reference set (5 entries):
molecule | tested target | Ki
CC(C)COc1ccc(Cl)cc1Cc1ccc(-c2nc3nccnc3[nH]2)o1 | human EP1 receptor (Homo sapiens) | ≤ 10 nM
O=C(c1ccc(Cc2cc(Cl)ccc2OCc2ccccc2)o1)n1cnc2ccccc21 | human EP1 receptor (Homo sapiens) | < 1000 nM
O=C(O)c1ccc(Cc2cc(Cl)ccc2OCc2ccncc2Cl)o1 | human EP1 receptor (Homo sapiens) | ≤ 10 nM
CC(C)COc1ccc(Cl)cc1Cc1ccc(C(=O)NCc2ccc(C(N)=O)cc2)o1 | human EP1 receptor (Homo sapiens) | < 1000 nM
Clc1ccc(OCc2ccccc2)c(Cc2ccc(-c3nc4ccc(CN5CCCC5)cc4[nH]3)o2)c1 | human EP1 receptor (Homo sapiens) | < 1000 nM

Tell me its Ki given `O=C(O)c1ccc(Cc2cc(Cl)ccc2OCC2CC2)o1` as the entry. < 1000 nM
